Tested on: HMG-CoA reductase (Enterococcus faecalis, mvaE)
method description: class II HMG-CoA reductase enzyme inhibition – biochemical, Enterococcus faecalis, primary screen (AID 1066);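 also: enzyme runs in reverse so mevalonate oxidation gives rising NADPH absorbance; 0% = complete reaction with DMSO and 100% = background rate lacking mevalonate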
settings: purified E. faecalis HMGR, NADPH absorbance 340 nm kinetic; at 10 µM; stronger effect = higher value
The campaign covered roughly 190,000 compounds. About 790 (0.42%) were called active. This is one part of a sample in which actives are shown more often than they occur.
Property: inhibition; scope: individual compounds
measured property: inhibition (%)

{"compound": "CC(Sc1nnnn1C1CCCCC1)C(=O)O (stereo unspecified)", "readout value": 3.4}
{"compound": "O=C(O)/C=C/c1ccc(S(=O)(=O)N2CCCCCC2)cc1", "readout value": -1.58}
{"compound": "CCCCN(C(=O)/C=C/c1ccco1)c1c(N)n(CC(C)C)c(=O)[nH]c1=O", "readout value": 1.3}
{"compound": "CC(CCn1cccn1)NC(=O)CCc1nnc(CCc2ccccc2)o1 (stereo unspecified)", "readout value": -1.69}
{"compound": "FC(F)Oc1ccccc1NC(=S)Nc1cccc(Cl)c1Cl", "readout value": -10.5}
{"compound": "COC(=O)c1c(NC(C)=O)sc(C(=O)Nc2ccccc2OC)c1C", "readout value": -2.99}
{"compound": "CN(CC(=O)Nc1ccccc1F)CC(=O)Nc1ccccc1Br", "readout value": 9.9}
{"compound": "O=C(Nc1cccc(Cl)c1)Nc1ccccc1NS(=O)(=O)c1cccs1", "readout value": -2.46}
{"compound": "Cc1c(NC(=S)NC(=O)CCc2ccccc2)c(=O)n(-c2ccccc2)n1C", "readout value": -5.41}
{"compound": "C/C(=N\\NC(=O)NC1CCCCC1)c1ccc(OC(F)F)cc1OC(F)F", "readout value": -0.33}
{"compound": "CCC(=O)/C=C1\\Sc2ccccc2N1CC", "readout value": 11.8}
{"compound": "COc1cc(/C=N/NC(=O)c2cc(C)n(-c3ccc(F)cc3)c2C)cc(OC)c1O", "readout value": 3.01}
{"compound": "CCCCc1ccc(NC(=S)NCCCN2CCOCC2)cc1", "readout value": 9.74}
{"compound": "C/[N+]([O-])=C\\c1ccc([N+](=O)[O-])o1", "readout value": 11}
{"compound": "O=C1CC(N2CCN(c3ccc(F)cc3)CC2)C(=O)N1c1ccccc1 (stereo unspecified)", "readout value": -3}
{"compound": "COc1ccc(OC)c(-c2csc(NC(=O)C3=NNC(=O)CC3)n2)c1", "readout value": -3.44}
{"compound": "CC(=O)Nc1ccc(S(=O)(=O)N2CCN(C3CCCCCCC3)CC2)cc1", "readout value": -5.25}
{"compound": "O=C(CCN1c2ccccc2Sc2ccccc21)Nc1ccccc1", "readout value": -1.11}
{"compound": "O=C(Cn1cnc([N+](=O)[O-])n1)NCCc1ccccc1", "readout value": 3.82}
{"compound": "C=CCn1c(=NC(=O)c2cccs2)sc2cc(NC(C)=O)ccc21", "readout value": -0.47}
{"compound": "COC(=O)C1=C(C)N(c2ccc(C)cc2)/C(=C/c2ccc(O)cc2)C1=O", "readout value": 1.84}
{"compound": "Cc1nn(CC(=O)Nc2ccc3c(c2)OCO3)c(C)c1[N+](=O)[O-]", "readout value": -8.05}
{"compound": "Cc1ccc(N2C(=O)C3CC3C2=O)cc1 (stereo unspecified)", "readout value": -5.05}
{"compound": "CCCOCC(O)CC(CC)C(=O)NNC(=S)Nc1ccccc1 (stereo unspecified)", "readout value": -0.14}
{"compound": "O=C(COC(=O)c1ccc(Cl)nc1)NCc1cccs1", "readout value": -2.01}
{"compound": "COc1cc(NC(=O)c2ccccc2NS(=O)(=O)c2ccc(Cl)s2)cc(OC)c1", "readout value": -0.12}
{"compound": "CCc1ccc(C(=O)OCC(=O)NCC(F)(F)F)cc1", "readout value": -8.47}
{"compound": "CC(NC(=O)CSc1nc2c(cc1C#N)CN(C)CC2)c1ccccc1 (stereo unspecified)", "readout value": -4.51}
{"compound": "O=C(CSC1CC(=O)N(CCc2ccccc2)C1=O)Nc1ccc(Cl)cc1 (stereo unspecified)", "readout value": 0.85}
{"compound": "NS(=O)(=O)c1ccc(N2C(=O)C3C4CC(C(Br)C4Br)C3C2=O)cc1 (stereo unspecified)", "readout value": 81.6}
{"compound": "C/C(CC(=O)Nc1cccc(F)c1)=N\\NC(=O)C(=O)NC1CCCCC1", "readout value": -2.25}
{"compound": "CC(=O)N/C(=C/c1ccc(OC(F)F)cc1)C(=O)O", "readout value": 0.04}
{"compound": "COc1ccc(C2C(C#N)=C(N)N(c3ncn[nH]3)C3=C2C(=O)CCC3)cc1 (stereo unspecified)", "readout value": 3.99}
{"compound": "Cc1ccc2c(c1)C1CN(C)CCC1N2S(=O)(=O)c1ccc(Oc2ccc([N+](=O)[O-])cc2)cc1 (stereo unspecified)", "readout value": -1.37}
{"compound": "Cc1cc(C)cc(NC(=S)NCCCN2CCOCC2)c1", "readout value": -2.33}
{"compound": "COc1cccc(C2SCC(=O)N2c2cccc(C)c2)c1OC (stereo unspecified)", "readout value": -2.05}
{"compound": "CCOc1ccc(N2C(=O)/C(=C/c3ccc(C)o3)N(C)C2=S)cc1", "readout value": -5.07}
{"compound": "Cc1ccc(Sc2ccncc2S(N)(=O)=O)cc1", "readout value": -1.29}
{"compound": "Cc1cc(C(=O)COC(=O)C2CC2)c(C)n1-c1ccc(F)cc1", "readout value": 2.01}
{"compound": "CCN1/C(=C/c2ccc3ccc(C)cc3[n+]2CC)Sc2ccccc21", "readout value": -2.41}
{"compound": "Cc1ccc(C(=O)NCC(=O)O)s1", "readout value": -1}
{"compound": "CN(C)S(=O)(=O)c1ccc(NC(=O)N2CCOCC2)cc1", "readout value": 15.2}
{"compound": "CCOC(=O)c1sc(NC(=O)COc2ncnc3ccccc23)c(C(=O)OCC)c1C", "readout value": 3.4}
{"compound": "Cc1ccc(NC(=S)NCCN2CCOCC2)cc1", "readout value": -1.8}
{"compound": "CC(C)(C)N(CC#CCC(O)(c1ccccc1)C1CCCC1)CCO (stereo unspecified)", "readout value": -1.31}
{"compound": "Fc1ccccc1Cn1cnc(NC(=S)NCCc2ccccc2)n1", "readout value": 15.6}
